- Tested on: HIV-1 resistant to Nevirapine (N119)
- PROCEDURE_TEXT: microbe, parasite or virus in culture
- Assay type: cell-based
- SETUP_CONDITIONS: Table 3; strain resistant to Nevirapine
ENDPOINT_LABEL: SI (selectivity index)

Consider the worked cases shown below.
Cc1cccc(Sc2c(C)c[nH]c(=O)c2N)c1 | > 1
CCc1cnc(O)c([N+](=O)[O-])c1Sc1cc(C)cc(C)c1 | > 1
CCOC(=O)c1c(Sc2cc(C)cc(C)c2)c(CC)c(C)[nH]c1=O | > 4.5
CCc1c(C)nc(O)c(N)c1Sc1cc(C)cc(C)c1 | > 4
CCc1cnc(O)c(N)c1Sc1cc(C)cc(C)c1 | > 1

The measured SI (selectivity index) associated with Cc1cc(C)cc(Sc2c(N)c(O)nc3ccccc23)c1 reads > 1.5

Entry under test: CCc1c(C)[nH]c(=O)c([N+](=O)[O-])c1Sc1cc(C)cc(C)c1 . Its SI (selectivity index) was > 38

// sample CCc1c(C)nc(O)c(NC(C)=O)c1Sc1cc(C)cc(C)c1 [Compound 11g] , its SI (selectivity index) was > 23

###

- System: PBMC
- PROCEDURE_TEXT: cytotoxicity on PBMC
- Assay type: cell-based
- SETUP_CONDITIONS: Table 4; line HIV-2 D194/PBMC; 7200 min
ENDPOINT_LABEL: CC50

# CC50 (compound: CCc1c(C)[nH]c(=O)c([N+](=O)[O-])c1Sc1cc(C)cc(C)c1 ) is > 10 µM

###

- PROCEDURE_TEXT: cytotoxicity on non-infected cells (MTT test)
- Format: cell-based
- SETUP_CONDITIONS: human; Table 2; non-infected CEM-SS cells, MTT, 5 days
The compounds listed here are annotated with their CC50 at 120 h.

compound CCc1c(C)nc(O)c(N)c1Sc1cc(C)cc(C)c1 , CC50 at 120 h observed: > 10 µM

Form field CC50 at 120 h, entry CCOC(=O)c1c(Sc2cc(C)cc(C)c2)c(CC)c(C)[nH]c1=O : > 10 µM

# compound CCOCc1c[nH]c(=O)c(N)c1Sc1cc(C)cc(C)c1 ; its CC50 at 120 h = > 10 µM

For this compound ( CCc1cnc(O)c([N+](=O)[O-])c1Sc1cc(C)cc(C)c1 ), measured CC50 at 120 h is > 10 µM

In plain terms, Cc1cccc(Sc2c(C)c[nH]c(=O)c2[N+](=O)[O-])c1 has a documented CC50 at 120 h of > 10 µM

CC50 at 120 h in this record for Cc1c[nH]c(=O)c([N+](=O)[O-])c1Sc1nc2ccccc2[nH]1 : 54.5 µM

Looking up Cc1cc(C)cc(Sc2c(C)c[nH]c(=O)c2NC=O)c1 [Compound 11a] , I found its CC50 at 120 h recorded as > 100 µM

Please fill in: CC50 at 120 h reported for Cc1cc(C)cc(Sc2c(N)c(O)nc3ccccc23)c1 = > 9 µM

Lab note: Cc1cc(O)nc(Sc2c(C)cnc(O)c2[N+](=O)[O-])n1 gave CC50 at 120 h of > 100 µM

###

Entries annotated with measured CC50 at 120 h
- PROCEDURE_TEXT: cytotoxicity on non-infected cells (MTT test)
- Assay type: cell-based
- SETUP_CONDITIONS: human; Table 2; non-infected CEM-SS cells, MTT, 5 days

Some solved cases for reference:
CCc1c(C)nc(O)c(NC(C)=O)c1Sc1cc(C)cc(C)c1 [Compound 11g] | > 80 µM
Cc1cnc(O)c([N+](=O)[O-])c1Sc1nc2ccccc2s1 [Compound 9e] | 13.5 µM
CC(=O)Nc1c(Sc2cc(C)cc(C)c2)c(C)c[nH]c1=O [Compound 11b] | > 100 µM
Cc1c[nH]c(=O)c([N+](=O)[O-])c1SC1=NCCS1 [Compound 9f] | 21.5 µM
Cc1cc(C)cc(Sc2c(C)cnc(O)c2NC(=O)Cc2ccccc2)c1 [Compound 11e] | > 10 µM
Cc1cn([C@H]2C[C@H](N=[N+]=[N-])[C@@H](CO)O2)c(=O)[nH]c1=O [AZT, reference compound] | > 100 µM
CCOC(=O)Nc1c(Sc2cc(C)cc(C)c2)c(C)c[nH]c1=O [Compound 11f] | > 100 µM
CCc1c(C)[nH]c(=O)c([N+](=O)[O-])c1Sc1cc(C)cc(C)c1 [Compound 7c] | > 10 µM

Please look at the following compound next.
For reference, reported CC50 at 120 h for Cc1cc(C)cc(Sc2c(C)cnc(O)c2N)c1 [Compound 8a] stands at > 10 µM

###

Each entry below lists one item and its recorded IC50 value.
- TEST_TARGET: IT of recombinant HIV-1 (Human immunodeficiency virus type 1 group M subtype B)
- Construct: purify the IT enzyme of the recombinant HIV-1; made in house; host or cells: yeast cells transformed with the pAB 24/IT-4 vector
- PROCEDURE_TEXT: inhibition of the inverse transcriptase of recombinant HIV-1
- Type: biochemical

Cc1cccc(Sc2c(C)c[nH]c(=O)c2[N+](=O)[O-])c1 | > 10 µM
Cc1cc(C)cc(Sc2c(C)cnc(O)c2[N+](=O)[O-])c1 | > 10 µM
CC(=O)Nc1c(Sc2cc(C)cc(C)c2)c(C)c[nH]c1=O [Compound 11b] | > 4 µM
CCC(=O)Nc1c(Sc2cc(C)cc(C)c2)c(C)c[nH]c1=O [Compound 11c] | > 4 µM

Pending compound:
get_value(item= Cc1c(Sc2ccccc2)n(COCCO)c(=O)[nH]c1=O , readout=IC50) returns > 6 µM
